yeast fitness values by entry
B1: tRNA (parent)
chain: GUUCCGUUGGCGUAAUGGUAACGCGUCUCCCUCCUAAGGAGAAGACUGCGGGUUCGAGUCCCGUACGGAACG

# Variants of: B1
# Run Description: yeast fitness relative to wild type (ratio to wild type); higher = fitter; tRNA-Arg(CCU), competitive growth, 37 C, YPD
Variants at the floor of the assay were thinned out.
Lab note: write the figure by itself, no unit.

mutation_spec="U7A G58A" experimental_result=0.635
mutation_spec="U2A G25A U32C" experimental_result=0.903
mutation_spec="G25C C33A A57U A69U" experimental_result=0.548
mutation_spec="A43G A57C A65U" experimental_result=0.511
mutation_spec="G12A C29A" experimental_result=0.652
mutation_spec="A15C A36C G48A G67A" experimental_result=0.541
mutation_spec="C27G A57U" experimental_result=0.591
mutation_spec="C27G U47A" experimental_result=0.702
mutation_spec="C4G A15U C33A G52C" experimental_result=0.707
mutation_spec="C4U U32A U35C" experimental_result=0.511

Suppose we examine the variant C5U C31U U47C ; what yeast fitness value has been reported? 0.701

Now consider C4A U8G U64C . 0.545

Now consider C55A G56A . 0.514

Now the variant C5A C29U 0.731

Now try C5A C46U U59C . 0.728

Next entry: G48C U59C 0.929

Follow-up item: U7A A21C C29U A37G C55U A70U 0.55

Moving on to U16A C24G A43C 0.512

Same for C29U A42U A43U A57C A70G 0.577
